# PROCEDURE_SUMMARY: Abuse potential main study: plasma pharmacokinetics after a single oral dose
# Type: in vivo, human
# EXPERIMENTAL_PARAMETERS: human, plasma, po, 90 mg, 90 mg single oral dose; read-out: Tmax, median
MEASURE: Tmax (h)
# number only, unit h dropped from output

Value lookup for Tmax; key = C[C@@]1(O)CC[C@H]2[C@H](CC[C@@H]3[C@@H]2CC[C@]2(C)[C@@H](C(=O)Cn4cc(C#N)cn4)CC[C@@H]32)C1 [Compound (1)] 5.1

====

# PROCEDURE_SUMMARY: Abuse potential main study: plasma pharmacokinetics after a single oral dose
# Type: in vivo, human
# EXPERIMENTAL_PARAMETERS: human, plasma; 90 mg single oral dose; read-out: AUC0-24, geometric mean
MEASURE: AUC(0-t) (ng·h/mL)
State just the number; it will be interpreted in ng·h/mL.

Quick check: AUC(0-t) of C[C@@]1(O)CC[C@H]2[C@H](CC[C@@H]3[C@@H]2CC[C@]2(C)[C@@H](C(=O)Cn4cc(C#N)cn4)CC[C@@H]32)C1 [Compound (1)] ? 1330

These data points were gathered from patent US20240216395A1.
